Data provenance is ChEMBL document CHEMBL1143466.

Kindly state Ki for each of the entries shown.
biological target: 5-hydroxytryptamine receptor 6 (Homo sapiens)
Form field: result (number plus unit)

O=S(=O)(c1ccccc1C(F)(F)F)n1cc(C2=CCCNC2)c2ccccc21 ... 21.7 nM
CN1CCC[C@H]1Cc1cn(S(=O)(=O)c2ccc(I)cc2)c2ccccc12 ... 3 nM
O=S(=O)(c1cccc(Cl)c1)n1cc(C[C@@H]2CCCN2)c2ccccc21 ... 22 nM

Okay, now this molecule:
Item: `O=S(=O)(c1cccc(Cl)c1)n1c2c(c3ccccc31)CCNC2` Test system: 5-hydroxytryptamine receptor 6 (Homo sapiens) Read-out: Ki Value: ? 41.7 nM

====

target: 5-hydroxytryptamine receptor 6 (Homo sapiens); assay: Maximum inhibition of cAMP production in HeLa cells expressing human 5-HT6 receptors; type: functional, cell-based
Task for the reader: assign each of the following compounds its reported Imax.
Numbers only, in %.

CN1CCC[C@H]1Cc1cn(S(=O)(=O)c2ccc(Cl)c(Cl)c2)c2ccccc12 ... 86.5

// batch mode: one Imax value per listed entry
1. COc1ccc(S(=O)(=O)n2cc(C[C@@H]3CCCN3C)c3ccccc32)cc1OC
2. CN1CCC[C@@H]1Cc1cn(S(=O)(=O)c2ccccc2)c2ccccc12
3. Cc1nc(N)sc1S(=O)(=O)n1cc(C2CCN(Cc3ccccc3)C2)c2ccccc21 (stereo not drawn)

1. 100
2. 75
3. 97

====

What log10(EC50) was measured for each of the following?
target: 5-hydroxytryptamine receptor 6 (Homo sapiens, UniProt P50406); test: Effective concentration for cAMP production in HeLa cells expressing human 5-HT6 receptors
Sequence (P50406 whole entry): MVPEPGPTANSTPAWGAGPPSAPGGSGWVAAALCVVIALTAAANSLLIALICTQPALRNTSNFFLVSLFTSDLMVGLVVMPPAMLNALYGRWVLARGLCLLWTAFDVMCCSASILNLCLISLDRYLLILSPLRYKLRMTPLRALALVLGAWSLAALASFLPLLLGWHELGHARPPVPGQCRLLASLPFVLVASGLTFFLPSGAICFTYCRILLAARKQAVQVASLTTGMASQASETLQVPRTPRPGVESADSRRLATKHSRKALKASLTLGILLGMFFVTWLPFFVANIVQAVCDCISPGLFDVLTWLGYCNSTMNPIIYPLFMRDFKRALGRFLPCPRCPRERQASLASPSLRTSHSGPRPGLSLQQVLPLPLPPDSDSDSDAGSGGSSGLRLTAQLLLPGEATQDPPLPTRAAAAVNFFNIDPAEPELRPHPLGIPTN
Note the log scale: values are log10 of EC50 expressed in nM.

Cc1nn(C)c(Cl)c1S(=O)(=O)n1cc(C2=CCCNC2)c2ccccc21 ... 1.95

Report log10(EC50) for each item below.
1. O=S(=O)(c1ccc(Cl)s1)n1cc(C2CCCNC2)c2ccccc21 (stereo not given)
2. CN1CCC[C@@H]1Cc1cn(S(=O)(=O)c2ccc(Br)s2)c2ccccc12
3. O=S(=O)(c1ccccc1)n1cc(C2=CCCNC2)c2ccccc21
4. O=S(=O)(c1ccc(F)c(F)c1)n1cc(C2CCCNC2)c2ccccc21 (stereo not given)

1.77
2.01
2.20
1.82

Below are 2 compounds. Give each one its log10(EC50).
1. O=S(=O)(c1ccccc1)n1cc(C2CCCNC2)c2ccccc21 (racemic)
2. O=S(=O)(c1ccccc1F)n1cc(C2=CCCNC2)c2ccccc21

[1.38, 1.71]

Quick batch: log10(EC50) for everything below.
1. O=S(=O)(c1ccc(F)cc1)n1cc(C2=CCCNC2)c2ccccc21
2. O=S(=O)(c1cccc(F)c1)n1cc(C2=CCCNC2)c2ccccc21
3. O=S(=O)(c1ccccc1)n1cc(C2CCCNC2)c2ccccc21 (stereo in doubt)

[2.54, 2.43, 1.56]

====

Entries below carry reported log10(Ki) on 5-hydroxytryptamine receptor 6 (Homo sapiens, UniProt P50406).
Values below are the log10 of the recorded Ki, with nM as the unit.

Solved cases (4 shown):
O=S(=O)(c1ccc(I)cc1)n1cc(C[C@@H]2CCCN2)c2ccccc21 ... 1.53
CN1CCC[C@H]1Cc1cn(S(=O)(=O)c2ccc(Br)s2)c2ccccc12 ... 0.48
CN1CCC[C@H]1Cc1cn(S(=O)(=O)c2cccc(Cl)c2)c2ccccc12 ... 0.60
O=S(=O)(c1ccc(Cl)s1)n1cc(C2=CCCNC2)c2ccccc21 ... 1.36

Please give log10(Ki) for each item listed below.
1. O=S(=O)(c1ccc(F)cc1F)n1cc(C2=CCCNC2)c2ccccc21
2. COc1ccc(S(=O)(=O)n2cc(C[C@@H]3CCCN3)c3ccccc32)cc1OC
3. COc1ccc(S(=O)(=O)n2cc(C[C@@H]3CCCN3)c3ccccc32)cc1

1: 1.11; 2: 1.36; 3: 1.60
